target: SF3b complexes (Homo sapiens, UniProt O75533+Q7RTV0)
Construct: endogenous in cells; host or cells: Nuclear extracts; A HeLa S3 extract preparation is described for the in vitro splicing assay
test_details: Scintillation proximity assay (SPA) with [3H]-labelled pladienolide probe
Type: binding
test_settings: SF3B1 (WT); geometric mean; read-out: SPA-ATS GMean IC50 (nM) SF3B1 (WT)
Description: Scintillation Proximity Assay (SPA) with [^3-H]-Labelled Pladienolide Probe Batch immobilization of anti-SF3B1 antibody (MBL) to anti-mouse PVT SPA scintillation beads (PerkinElmer) was prepared as follows: for every 2.5 mg of nuclear extracts, 5 μg anti-SF3B1 antibody and 1.5 mg of beads were mixed in 150 μl PBS. […] The mixture was incubated for 30 min, and luminescence signals were read using a MicroBeta2 Plate Counter (PerkinElmer). […]
Measured IC50 accompanies every entry in the list below.
Give just the number in nM; leave the unit off.

Please review the entries below; each comes with its answer.
* C/C(=C\c1cc(F)cc(OC2CCN(S(C)(=O)=O)CC2)c1)[C@H]1OC(=O)C[C@H](O)CC[C@H](C)[C@@H](OC(=O)N2CCN(C)CC2)/C=C/[C@@H]1C | 10.7
* C=CS(=O)(=O)N1CCN(c2cc(F)cc(/C=C(\C)[C@H]3OC(=O)C[C@H](O)CC[C@H](C)[C@@H](OC(=O)N4CCN(C)CC4)/C=C/[C@@H]3C)c2)CC1 | 4.88
* C/C(=C\c1cc(F)cc(N2CCN(C(=O)C3CCCCC3)CC2)c1)[C@H]1OC(=O)C[C@H](O)CC[C@H](C)[C@@H](OC(=O)N2CCN(C)CC2)/C=C/[C@@H]1C | 18.2
* C/C(=C\c1cc(F)cc(N2CCN(C(=O)Cn3cccn3)CC2)c1)[C@H]1OC(=O)C[C@H](O)CC[C@H](C)[C@@H](OC(=O)N2CCN(C)CC2)/C=C/[C@@H]1C | 5.5
* C/C(=C\c1cc(F)cc(NC2CCN(S(C)(=O)=O)CC2)c1)[C@H]1OC(=O)C[C@H](O)CC[C@H](C)[C@@H](OC(=O)N2CCN(C)CC2)/C=C/[C@@H]1C | 21

Request: IC50, test system SF3b complexes (Homo sapiens, UniProt O75533+Q7RTV0), entry C/C(=C\c1cc(F)cc(N(C)C2CCN(C(=O)c3cnccn3)CC2)c1)[C@H]1OC(=O)C[C@H](O)CC[C@H](C)[C@@H](OC(=O)N2CCN(C)CC2)/C=C/[C@@H]1C
6.8

Request: IC50, test system SF3b complexes (Homo sapiens, UniProt O75533+Q7RTV0), entry C/C(=C\c1cc(F)cc(N2CCOCC2)c1)[C@H]1OC(=O)C[C@H](O)CC[C@H](C)[C@@H](OC(=O)N2CCN(C3CCC3)CC2)/C=C/[C@@H]1C
11.4

Request: IC50, test system SF3b complexes (Homo sapiens, UniProt O75533+Q7RTV0), entry C/C(=C\c1cc(F)cc(N(C)C2CCN(C(=O)C(F)(F)F)CC2)c1)[C@H]1OC(=O)C[C@H](O)CC[C@H](C)[C@@H](OC(=O)N2CCN(C)CC2)/C=C/[C@@H]1C
8.2

Request: IC50, test system SF3b complexes (Homo sapiens, UniProt O75533+Q7RTV0), entry C/C(=C\c1cccc(S(=O)(=O)NC(C)(C)CO)c1)[C@H]1OC(=O)C[C@H](O)CC[C@H](C)[C@@H](OC(=O)N2CCN(C)CC2)/C=C/[C@@H]1C
5.64

Request: IC50, test system SF3b complexes (Homo sapiens, UniProt O75533+Q7RTV0), entry COCCn1nnc2c(F)cc(/C=C(\C)[C@H]3OC(=O)C[C@H](O)CC[C@H](C)[C@@H](OC(=O)N4CCN(C)CC4)/C=C/[C@@H]3C)cc21
1.84

All values here come from patent US11679107B2.
